Tested on: MCP-1 production by THP-1 cells
Procedure summary: MCP-1 production by macrophages
Type: cell-based, human
Assay conditions: THP-1 cells stimulated with opsonized zymosan, 24 hours; read-out: IC50 MCP-1 production
# log10 IC50 per entry
Lab note - IC50 converted to log10 from values in nM.

Observe how each entry below is paired with its result.
# input Look at this compound and give its reported log10 IC50. CC[C@]1(O)C[C@H]2CN(CCc3c([nH]c4ccccc34)[C@@](C(=O)OC)(c3cc4c(cc3OC)N(C=O)[C@H]3[C@@](O)(C(=O)OC)[C@H](OC(C)=O)[C@]5(CC)C=CCN6CC[C@]43[C@@H]65)C2)C1 [vincristine]
# output 1.20

# input Look at this compound and give its reported log10 IC50. CC[C@]1(O)C[C@@H]2CN(CCc3c([nH]c4ccccc34)[C@@](C(=O)OC)(c3cc4c(cc3OC)N(C)[C@H]3[C@@](O)(C(=O)OC)[C@H](OC(C)=O)[C@]5(CC)C=CCN6CC[C@]43[C@@H]65)C2)C1 [vinblastine]
# output 1.28

# input Look at this compound and give its reported log10 IC50. CCCCC/C=C/C=C1/C(=O)C=C[C@@H]1C/C=C\CCCC(=O)O [15-deoxy prostaglandin J2, 15-Deoxy-D12,14-prostaglandin J2]
# output 2.86

More entries:
# input Look at this compound and give its reported log10 IC50. COc1cccc2c1C(=O)c1c(O)c3c(c(O)c1C2=O)C[C@@](O)(C(C)=O)C[C@@H]3O[C@H]1C[C@H](N)[C@H](O)[C@H](C)O1 [daunorubicin]
# output 2.76

# input Look at this compound and give its reported log10 IC50. Nc1ncnc2c1ccn2[C@@H]1O[C@H](CO)[C@@H](O)[C@H]1O [tubercidin]
# output 1.75

# input Look at this compound and give its reported log10 IC50. C/C(=N\N=C(N)N)c1cc(NC(=O)CCCCCCCCC(=O)Nc2cc(/C(C)=N/N=C(N)N)cc(/C(C)=N/N=C(N)N)c2)cc(/C(C)=N/N=C(N)N)c1 [CNI-1493]
# output -1.70

# input Look at this compound and give its reported log10 IC50. O=C(O)CCCCN(CCc1ccccc1OCc1ccc(CCc2ccccc2)cc1)Cc1ccc(C(=O)O)cc1 [Bay 58-2667]
# output 2.33

# input Look at this compound and give its reported log10 IC50. C=CCNC1=C2C[C@@H](C)C[C@H](OC)[C@H](O)[C@@H](C)/C=C(\C)[C@H](OC(N)=O)[C@@H](OC)/C=C\C=C(/C)C(=O)NC(=CC1=O)C2=O [17-AAG, 17-allylaminogeldanamycin]
# output 2.13

# input Look at this compound and give its reported log10 IC50. CO[C@@H]1[C@H](O)C[C@@H](O[C@@H]2C[C@H](Oc3cc4cc5c(c(O)c4c(O)c3C)C(=O)[C@@H](O[C@H]3C[C@@H](O[C@H]4C[C@@H](O[C@H]6C[C@](C)(O)[C@@H](OC(C)=O)[C@H](C)O6)[C@H](O)[C@@H](C)O4)[C@H](O)[C@@H](C)O3)[C@H]([C@H](OC)C(=O)[C@@H](O)[C@@H](C)O)C5)O[C@H](C)[C@@H]2OC(C)=O)O[C@@H]1C [chromomycin A3]
# output 1.57

# input Look at this compound and give its reported log10 IC50. CC1(C)CN[Se]c2ccccc21 [BXT-51072]
# output 2.83

---

# IC50 per entry
System: IL-8 production by THP-1 cells
Procedure summary: IL-8 production by macrophages
Assay type: cell-based, human
Assay conditions: Homo sapiens; THP-1 cells stimulated with opsonized zymosan, 24 hours; read-out: IC50 IL-8 production
// note: answer is a bare numeric in µM

Observe how each entry below is paired with its result.
# input Look at this compound and give its reported IC50. Oc1c2ccccc2c2c3c(cccc13)N=N2 [SP600125]
# output 0.344

# input Look at this compound and give its reported IC50. COc1c(C)c2c(c(O)c1C/C=C(\C)CCC(=O)O)C(=O)OC2 [mycophenolic acid]
# output 0.549

# input Look at this compound and give its reported IC50. Oc1ccc(C=Cc2cc(O)cc(O)c2)cc1 [resveratrol]
# output 0.507

# input Look at this compound and give its reported IC50. O=C(CC1NCCCC1O)Cn1cnc2cc(Br)c(Cl)cc2c1=O (centres unmarked) [halofuginone]
# output 0.641

Please examine the following record next.
# input Look at this compound and give its reported IC50. O=C[C@@H](O)[C@@H](O)[C@H](O)[C@H](O)COP(=O)(O)O [D-mannose-6-phosphate]
# output 0.22

---

System: K. pneumoniae ATCC13883 C238
Procedure summary: MIC microtitre broth dilution, K. pneumoniae
Type: cell-based
Assay conditions: K. pneumoniae ATCC13883 C238 wt Gram−, 24 h
Readout: Minimum inhibitory concentration

Observe how each entry below is paired with its result.
# input Look at this compound and give its reported Minimum inhibitory concentration. CN(Cc1cnc2nc(N)nc(N)c2n1)c1ccc(C(=O)N[C@@H](CCC(=O)O)C(=O)O)cc1 [methotrexate]
# output 10^−6 Molar

# input Look at this compound and give its reported Minimum inhibitory concentration. `CC[C@@]1(O)C(=O)OCc2c1cc1n(c2=O)Cc2cc3ccccc3nc2-1`
# output N

# input Look at this compound and give its reported Minimum inhibitory concentration. N.N.[Cl][Pt][Cl] [cisplatin]
# output N

# input Look at this compound and give its reported Minimum inhibitory concentration. `O=c1[nH]cc(F)c(=O)[nH]1`
# output 10^−6 Molar

# input Look at this compound and give its reported Minimum inhibitory concentration. COc1cc([C@@H]2c3cc4c(cc3[C@@H](O[C@@H]3O[C@@H]5CO[C@@H](C)O[C@H]5[C@H](O)[C@H]3O)[C@H]3COC(=O)[C@H]23)OCO4)cc(OC)c1O [etoposide]
# output 10^−5 Molar

# input Look at this compound and give its reported Minimum inhibitory concentration. `COc1cccc2c1C(=O)c1c(O)c3c(c(O)c1C2=O)C[C@@](O)(C(=O)CO)C[C@@H]3O[C@H]1C[C@H](N)[C@H](O)[C@H](C)O1`
# output 10^−6 Molar

More entries:
# input Look at this compound and give its reported Minimum inhibitory concentration. `Nc1ccn([C@@H]2O[C@H](CO)[C@@H](O)[C@@H]2O)c(=O)n1`
# output N

# input Look at this compound and give its reported Minimum inhibitory concentration. `Nc1ncnc2c1ccn2[C@@H]1O[C@H](CO)[C@@H](O)[C@H]1O`
# output N

# input Look at this compound and give its reported Minimum inhibitory concentration. NC(=O)NO [hydroxyurea]
# output N

---

Tested on: IL-8 production by THP-1 cells
Procedure summary: IL-8 production by macrophages
Assay type: cell-based, human
Assay conditions: Homo sapiens, THP-1, 24 h, read-out: IC50 IL-8 production
Readout: IC50 (nM)
// note: answer is a bare numeric in nM

# input Look at this compound and give its reported IC50. CC1=C(O)C(=O)C=C2C1=CC=C1[C@@]2(C)CC[C@@]2(C)[C@@H]3C[C@](C)(C(=O)O)CC[C@]3(C)CC[C@]12C [celastrol]
# output 490

---

System: MCP-1 production by THP-1 cells
Procedure summary: MCP-1 production by macrophages
Format: cell-based, human
Assay conditions: THP-1 cells stimulated with opsonized zymosan, 24 hours; read-out: IC50 MCP-1 production
IC50 less than 200 nM is Y; IC50 greater than or equal to 200 nM is N.

# input I'd appreciate it if you could check whether C=C1/C(=C\C=C2/CCC[C@]3(C)[C@@H]([C@H](C)CCCC(C)(C)O)CC[C@@H]23)C[C@@H](O)C[C@@H]1O [1-α-25 dihydroxy vitamin D3] has IC50 smaller than 200 nM.
# output Y

# input I'd appreciate it if you could check whether CCC1=C[C@@H]2CN(C1)Cc1c([nH]c3ccccc13)[C@@](C(=O)OC)(c1cc3c(cc1OC)N(C)[C@H]1[C@@](O)(C(=O)OC)[C@H](OC(C)=O)[C@]4(CC)C=CCN5CC[C@]31[C@@H]54)C2 [vinorelbine] has IC50 smaller than 200 nM.
# output Y

# input I'd appreciate it if you could check whether Nc1ccn([C@@H]2O[C@H](CO)[C@@H](O)C2(F)F)c(=O)n1 [gemcitabine] has IC50 smaller than 200 nM.
# output Y

# input I'd appreciate it if you could check whether CC[C@@]1(O)C(=O)OCc2c1cc1n(c2=O)Cc2cc3c(CN(C)C)c(O)ccc3nc2-1 [topotemay, Topotecan] has IC50 smaller than 200 nM.
# output N

More entries:
# input I'd appreciate it if you could check whether COc1ccc(C[C@H]2NC[C@H](O)[C@H]2OC(C)=O)cc1 [anisomycin] has IC50 smaller than 200 nM.
# output Y

# input I'd appreciate it if you could check whether COc1ccc(C[C@H](N)C(=O)N[C@H]2[C@@H](O)[C@H](n3cnc4c(N(C)C)ncnc43)O[C@@H]2CO)cc1 [puromycin] has IC50 smaller than 200 nM.
# output Y
